biological target: CDK6/D3 (Homo sapiens, UniProt Q00534); assay: Inhibitory activity on CDK6 kinase by Caliper Mobility Shift method; conditions: CDK6/D3, 28° C. for 5 hours
Sequence (Q00534 whole entry, species assumed): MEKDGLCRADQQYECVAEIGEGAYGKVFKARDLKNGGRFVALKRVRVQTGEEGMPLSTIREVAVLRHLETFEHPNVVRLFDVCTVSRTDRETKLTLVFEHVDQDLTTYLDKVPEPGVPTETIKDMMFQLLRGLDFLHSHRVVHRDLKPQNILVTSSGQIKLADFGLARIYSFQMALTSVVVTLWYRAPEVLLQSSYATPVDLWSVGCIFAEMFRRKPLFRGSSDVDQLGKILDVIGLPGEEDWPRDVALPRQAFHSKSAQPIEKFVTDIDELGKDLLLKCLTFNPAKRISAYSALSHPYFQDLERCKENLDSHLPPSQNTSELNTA
Sequence (P30281 whole entry partner, species assumed): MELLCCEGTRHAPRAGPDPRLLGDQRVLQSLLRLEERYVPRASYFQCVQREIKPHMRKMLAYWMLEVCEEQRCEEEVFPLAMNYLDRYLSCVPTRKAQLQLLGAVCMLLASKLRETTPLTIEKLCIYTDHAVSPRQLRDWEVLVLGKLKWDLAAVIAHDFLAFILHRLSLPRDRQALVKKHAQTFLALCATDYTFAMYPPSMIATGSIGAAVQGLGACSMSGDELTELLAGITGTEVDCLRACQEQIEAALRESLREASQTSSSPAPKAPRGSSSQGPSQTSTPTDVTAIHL
property.name: log10 IC50 (log10 of the value in nM)

{"columns": ["compound", "log10 IC50"],
 "data": [
  ["CCN1CCN(Cc2cnc3cc2NC(=O)CC(C)(C)n2c(C)nc4c(F)cc(cc42)-c2nc(ncc2F)N3)CC1", 1.00],
  ["CCN1CCN(Cc2cnc3cc2NC(=O)C[C@H](C)n2c(C)nc4c(F)cc(cc42)-c2nc(ncc2F)N3)CC1", 1.43],
  ["CCN1CCN(Cc2cnc3cc2NC(=O)CC(C)n2c(C)nc4c(F)cc(cc42)-c2nc(ncc2F)N3)CC1 (centres unmarked)", -0.32],
  ["CCN1CCN(Cc2cnc3cc2NC(=O)CC2(CC2)n2c(C)nc4c(F)cc(cc42)-c2nc(ncc2F)N3)CC1", 1.08],
  ["CCN1CCN(Cc2cnc3cc2NC(=O)CC(C)n2ccc4ccc(cc42)-c2nc(ncc2F)N3)CC1 (centres unmarked)", 0.40],
  ["CCN1CCN(Cc2cnc3cc2NCCC(C)n2c(C)nc4c(F)cc(cc42)-c2nc(ncc2F)N3)CC1 (centres unmarked)", 1.15],
  ["CCN1CCN(Cc2cnc3cc2NC(=O)C[C@@H](C)n2c(C)nc4c(F)cc(cc42)-c2nc(ncc2F)N3)CC1", -0.46],
  ["CCN1CCN(Cc2cnc3cc2NC(=O)CCn2c(C)nc4c(F)cc(cc42)-c2nc(ncc2F)N3)CC1", 0.05]
]}
